The measurements presented in this section are drawn from ChEMBL document CHEMBL1914423.

- Test system: HCC 2998
- EXPERIMENTAL DETAILS: Anticancer activity against human HCC2998 cells after 48 hrs by SRB assay
- Assay type: functional
- SETUP CONDITIONS: HCC 2998, 48 h
REPORTED ENDPOINT: GI50 (µM)
Field format: number, assumed µM, no unit text.

Below, 3 compounds whose answers are already recorded.
O=C(NCCNc1nccc(-c2c(-c3cccc(O)c3)nc3sccn23)n1)c1ccccc1 :: 13.8
O=C(NCCNc1nccc(-c2c(-c3cccc(O)c3)nc3sccn23)n1)Nc1cccc(C(F)(F)F)c1 :: 2.68
COc1cccc(-c2nc3sccn3c2-c2ccnc(NCCNC(=O)Nc3cccc(C(F)(F)F)c3)n2)c1 :: 3.75

HCC 2998 GI50 of O=C(NCCNc1nccc(-c2c(-c3cccc(O)c3)nc3sccn23)n1)c1ccccc1O is 3.55

====

- Test system: HL-60(TB)
- EXPERIMENTAL DETAILS: Anticancer activity against human HL-60(TB) cells assessed as cell growth at 10^-5 M after 48 hrs by SRB assay
- Assay type: functional
- SETUP CONDITIONS: HL-60, 48 h, read-out: Activity
Overview of recorded growth at 10 µM for various molecules
Field format: number, assumed %, no unit text.

O=C(NCCNc1nccc(-c2c(-c3cccc(O)c3)nc3sccn23)n1)c1cc(C(F)(F)F)cc(C(F)(F)F)c1 :: 123
O=C(NCCNc1nccc(-c2c(-c3cccc(O)c3)nc3sccn23)n1)c1cc(N2CCOCC2)cc(C(F)(F)F)c1 :: 102
O=C(NCCNc1nccc(-c2c(-c3cccc(O)c3)nc3sccn23)n1)Nc1ccccc1 :: 95.1

HL-60(TB) growth at 10 µM of COc1cccc(-c2nc3sccn3c2-c2ccnc(NCCNC(=O)Nc3ccccc3)n2)c1 is 122

HL-60(TB) growth at 10 µM of COc1cccc(-c2nc3sccn3c2-c2ccnc(NCCNC(=O)Nc3cccc(C(F)(F)F)c3)n2)c1 is 62.8

====

- System: RPMI-8226
- EXPERIMENTAL DETAILS: Anticancer activity against human RPMI8226 cells assessed as cell growth at 10^-5 M after 48 hrs by SRB assay
- Assay type: functional
- SETUP CONDITIONS: RPMI-8226, 48 h, read-out: Activity
REPORTED ENDPOINT: growth at 10 µM (%)
Field format: number, assumed %, no unit text.

O=C(NCCNc1nccc(-c2c(-c3cccc(O)c3)nc3sccn23)n1)c1cccc(C(F)(F)F)c1 :: 44.2

RPMI-8226 growth at 10 µM of COc1cccc(-c2nc3sccn3c2-c2ccnc(NCCNC(=O)Nc3ccccc3)n2)c1 is 55.5

RPMI-8226 growth at 10 µM of COc1cccc(-c2nc3sccn3c2-c2ccnc(NCCNC(=O)c3ccccc3)n2)c1 is 41.6

====

Overview of recorded TGI for various molecules
- Test system: SK-MEL-28
- EXPERIMENTAL DETAILS: Anticancer activity against human SK-MEL-28 cells after 48 hrs by SRB assay
- Type: functional
- SETUP CONDITIONS: SK-MEL-28, 48 h
Field format: number, assumed µM, no unit text.

Below, 2 molecules whose answers are already recorded.
COc1cccc(-c2nc3sccn3c2-c2ccnc(NCCNC(=O)Nc3cccc(C(F)(F)F)c3)n2)c1 :: 26.2
O=C(NCCNc1nccc(-c2c(-c3cccc(O)c3)nc3sccn23)n1)c1ccccc1O :: 11.1

Briefly, TGI measured for O=C(NCCNc1nccc(-c2c(-c3cccc(O)c3)nc3sccn23)n1)c1ccccc1 : 99.1

Briefly, TGI measured for O=C(NCCNc1nccc(-c2c(-c3cccc(O)c3)nc3sccn23)n1)Nc1cccc(C(F)(F)F)c1 : 10
